assay: Fraction unbound in rat brain; type: ADME, tissue-based
Hi, to clarify the labels: y covers fraction unbound from 0.03 upward, n covers anything below 0.03.

Observe how each entry below is paired with its result.
O=C(O)C1=CCN(C2CCC3(Cc4ccccc4Oc4ccccc43)C2)CC1 (configuration not stated) ... n
O=C(O)C1CN(C2CC[C@]3(Cc4ccccc4Cc4ccccc43)C2)C1 (some centres not stated) ... y

Hi team, for O=C(O)C1CCN(C2CC[C@]3(Cc4ccccc4Cc4ccccc43)C2)CC1 (some centres not stated) , is the recorded fraction unbound at or above 0.03? y

Dear colleague, could you confirm whether O=C(O)[C@]12C[C@H]1CN(C1CC[C@]3(Cc4ccccc4Cc4ccccc43)C1)C2 (some centres not stated) has fraction unbound at or above 0.03? n

Hi team, for O=C(O)C1(F)CCN(C2CC[C@]3(Cc4ccccc4Cc4ccccc43)C2)CC1 (some centres not stated) , is the recorded fraction unbound at or above 0.03? n

Quick check: does O=C(O)C1CN(C2CCC3(Cc4ccccc4Oc4ccccc43)C2)C1 (configuration not stated) have fraction unbound greater than or equal to 0.03? y

###

test: Half life in Sprague-Dawley rat at 0.5 mg/kg, iv and 1 mg/kg, po; assay type: ADME, organism-based; details: in vivo
assay_metric: half-life (h)
Please respond with the number in h and leave the unit unwritten.

Study these solved cases before continuing.
O=C(O)[C@]12C[C@H]1CN(C1CC[C@]3(Cc4ccccc4Cc4ccccc43)C1)C2 (stereo partly drawn) ... 5.3
O=C(O)C1CN(C2CCC3(Cc4ccccc4Oc4ccccc43)C2)C1 (stereo not drawn) ... 1.9

Please turn your attention to the following entry.
Given O=C(O)C1CCN(C2CC[C@]3(Cc4ccccc4Cc4ccccc43)C2)CC1 (stereo partly drawn) , respond with its half-life. 1.9

###

experiment: Cmax in Sprague-Dawley rat hypnotic model at 1 mg/kg, po administered during active phase measured after 2 hrs; type: ADME, organism-based; parameters: dose 1 mg/kg, route oral; settings: in vivo
assay_metric: Cmax (ng/mL)
I only need the number, in ng/mL, no unit after it.

Complete the entry with Cmax for O=C(O)C1CCN(C2CC[C@]3(Cc4ccccc4Cc4ccccc43)C2)CC1 (stereo partly specified) 216

###

Endpoint: IC50. System: Cytochrome P450 2C9 (Homo sapiens, UniProt P11712). Items follow.
Sequence (P11712 whole entry): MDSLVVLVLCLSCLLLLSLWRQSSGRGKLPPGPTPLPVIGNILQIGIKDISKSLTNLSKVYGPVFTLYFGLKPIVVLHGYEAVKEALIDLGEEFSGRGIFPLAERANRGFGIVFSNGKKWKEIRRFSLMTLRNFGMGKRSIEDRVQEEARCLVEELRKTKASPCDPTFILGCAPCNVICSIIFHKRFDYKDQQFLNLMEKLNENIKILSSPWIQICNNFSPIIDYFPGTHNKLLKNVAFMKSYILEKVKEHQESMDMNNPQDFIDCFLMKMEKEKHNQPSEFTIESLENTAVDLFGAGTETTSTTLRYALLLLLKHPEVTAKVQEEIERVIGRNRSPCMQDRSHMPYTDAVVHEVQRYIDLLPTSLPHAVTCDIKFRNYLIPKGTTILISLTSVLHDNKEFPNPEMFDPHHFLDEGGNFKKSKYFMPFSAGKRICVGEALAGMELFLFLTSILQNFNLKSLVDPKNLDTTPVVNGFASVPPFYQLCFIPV

O=C(O)C1CCN(C2CC[C@]3(Cc4ccccc4Cc4ccccc43)C2)CC1 (some centres not stated) ... > 10 µM

Report the value of IC50 obtained on Cytochrome P450 2C9 (Homo sapiens, UniProt P11712) for O=C(O)C1=CCCN(C2CC[C@]3(Cc4ccccc4Cc4ccccc43)C2)C1 (single isomer, unassigned; stereoisomer 1) . > 10 µM

###

target: 5-hydroxytryptamine receptor 2C (Homo sapiens, UniProt P28335); assay: Antagonist activity at human 5HT2C receptor expressed in human SH-SY5Y cells by FLIPR assay
Sequence (P28335 whole entry): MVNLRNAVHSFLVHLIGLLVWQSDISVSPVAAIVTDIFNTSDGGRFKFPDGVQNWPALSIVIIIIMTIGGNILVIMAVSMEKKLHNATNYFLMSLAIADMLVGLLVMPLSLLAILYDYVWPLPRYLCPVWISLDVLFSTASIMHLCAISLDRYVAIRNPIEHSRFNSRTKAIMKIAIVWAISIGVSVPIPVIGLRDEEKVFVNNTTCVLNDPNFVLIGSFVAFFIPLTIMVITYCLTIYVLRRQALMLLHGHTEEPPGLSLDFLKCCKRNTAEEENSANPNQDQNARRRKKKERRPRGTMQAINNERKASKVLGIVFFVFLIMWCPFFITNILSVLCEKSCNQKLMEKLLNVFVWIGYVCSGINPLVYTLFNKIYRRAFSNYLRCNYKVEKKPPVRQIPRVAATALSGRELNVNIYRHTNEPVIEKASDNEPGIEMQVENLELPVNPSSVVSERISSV
Each item that follows carries a reported pKi.
Recall that pKi is obtained by taking minus log10 of the concentration measured in molar.

Quote pKi with test system 5-hydroxytryptamine receptor 2C (Homo sapiens, UniProt P28335) for O=C(O)C1CN(C2CC[C@]3(Cc4ccccc4Cc4ccccc43)C2)CCN1 (stereo not given in full) 6.70

###

A short record of Ki observed with Histamine H1 receptor (Rattus norvegicus, UniProt P31390) follows.
Sequence (P31390 whole entry): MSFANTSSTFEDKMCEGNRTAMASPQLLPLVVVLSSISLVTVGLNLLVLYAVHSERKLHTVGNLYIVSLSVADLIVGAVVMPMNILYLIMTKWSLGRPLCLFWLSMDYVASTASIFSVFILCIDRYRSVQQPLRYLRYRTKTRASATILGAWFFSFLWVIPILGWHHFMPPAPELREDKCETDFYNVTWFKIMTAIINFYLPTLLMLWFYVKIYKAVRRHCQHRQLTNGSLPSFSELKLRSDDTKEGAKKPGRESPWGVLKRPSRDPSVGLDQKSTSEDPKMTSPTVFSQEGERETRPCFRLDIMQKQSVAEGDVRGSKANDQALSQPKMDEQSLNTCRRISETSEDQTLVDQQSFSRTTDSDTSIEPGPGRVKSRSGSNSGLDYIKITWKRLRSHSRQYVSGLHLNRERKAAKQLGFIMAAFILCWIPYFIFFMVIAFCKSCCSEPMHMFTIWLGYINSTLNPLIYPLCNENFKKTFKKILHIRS
Reply with just the number (in nM).

O=C(O)C1CN(C2CCC3(Cc4ccccc4Oc4ccccc43)C2)C1 (centres undefined) ... 14.1
O=C(O)[C@]12C[C@H]1CN(C1CC[C@]3(Cc4ccccc4Cc4ccccc43)C1)C2 (some centres undefined) ... 5.37
O=C(O)C1=CCCN(C2CC[C@]3(Cc4ccccc4Cc4ccccc43)C2)C1 (single isomer, unassigned; stereoisomer 1) ... 8.71

Give the observed Ki of O=C(O)C1CN(C2CC[C@]3(Cc4ccccc4Cc4ccccc43)C2)C1 (some centres undefined) for Histamine H1 receptor (Rattus norvegicus, UniProt P31390). 5.62
